Source: patent EP1077967B1

Reported % Change from Control by item:
Tested on: rat hepatic microsomal PTPases
Test: Inhibition of tri-phosphorylated insulin receptor dodecaphosphopeptide dephosphorylation by rat hepatic PTPases (malachite green)
Assay type: biochemical
Conditions: PTPase activity, compound at 50 µM, rat liver microsomal fraction
Numeric only. Scale: %

Please review the following examples before continuing.
molecule: C[C@@H](Oc1ccc(-c2ccc(-c3c(Cc4ccccc4)oc4ccccc34)cc2)cc1)C(=O)O
assay-system: rat hepatic microsomal PTPases
recorded-metric: % Change from Control
value-observed: -63
//
molecule: O=C(O)[C@H](Cc1ccccc1)Oc1ccc(-c2ccc(-c3c(Cc4ccccc4)oc4ccccc34)cc2)cc1 [Example 1]
assay-system: rat hepatic microsomal PTPases
recorded-metric: % Change from Control
value-observed: -53
//
molecule: O=C(c1ccccc1)c1oc2ccccc2c1-c1ccc(-c2ccc(OC(Cc3ccccc3)C(=O)O)cc2)cc1 (stereo not shown)
assay-system: rat hepatic microsomal PTPases
recorded-metric: % Change from Control
value-observed: -55
//
molecule: O=C(O)COc1ccc(-c2ccc(-c3c(Br)oc4ccccc34)cc2)cc1
assay-system: rat hepatic microsomal PTPases
recorded-metric: % Change from Control
value-observed: -71
//
molecule: CCCCc1oc2ccccc2c1-c1ccc(-c2ccc(OCC(=O)O)cc2)cc1
assay-system: rat hepatic microsomal PTPases
recorded-metric: % Change from Control
value-observed: -75

Query: % Change from Control; subject: O=C(O)[C@H](Cc1ccccc1)Oc1ccc(-c2ccc(-c3c(Cc4ccccc4)oc4ccccc34)cc2)cc1 [Example 16]
-53

I am curious: what % Change from Control value has been reported for O=C(O)C(Cc1ccccc1)Oc1ccc(-c2ccc(-c3coc4ccccc34)cc2)cc1 (stereo not shown) ?
-70

Endpoint output: % Change from Control of O=C(O)[C@@H](Cc1ccccc1)Oc1ccc(-c2ccc(-c3c(C(O)c4ccccc4)oc4ccccc34)cc2)cc1 (stereo partly shown) . Value?
-55

Name the reported % Change from Control value associated with the molecule O=C(O)C(Cc1ccccc1)Oc1ccc(-c2ccc(-c3c(Br)oc4ccccc34)cc2)cc1 (stereo not shown)
-73

Item under review: O=C(O)[C@@H](Cc1ccccc1)Oc1ccc(-c2ccc(-c3c(Cc4ccccc4)oc4ccccc34)cc2)cc1 . Reported % Change from Control?
-59
